# assay.text: Intrinsic clearance in human hepatocytes at 1 uM after 5 to 120 mins by LC-MS/MS method
# Format: ADME, cell-based, Hepatocyte
test.readout: CLH

**Query** Fill in: CLH of Cn1c(=O)oc2ccc(-c3ccc(C[C@@H](C#N)NC(=O)[C@@H]4CNCCCO4)cc3)cc21 [BRENSOCATIB] is ___
**Result** < 1 µL/min/1e6 cells

---

# target.under.test: Cathepsin E (Homo sapiens)
# Sequence (P14091 whole entry): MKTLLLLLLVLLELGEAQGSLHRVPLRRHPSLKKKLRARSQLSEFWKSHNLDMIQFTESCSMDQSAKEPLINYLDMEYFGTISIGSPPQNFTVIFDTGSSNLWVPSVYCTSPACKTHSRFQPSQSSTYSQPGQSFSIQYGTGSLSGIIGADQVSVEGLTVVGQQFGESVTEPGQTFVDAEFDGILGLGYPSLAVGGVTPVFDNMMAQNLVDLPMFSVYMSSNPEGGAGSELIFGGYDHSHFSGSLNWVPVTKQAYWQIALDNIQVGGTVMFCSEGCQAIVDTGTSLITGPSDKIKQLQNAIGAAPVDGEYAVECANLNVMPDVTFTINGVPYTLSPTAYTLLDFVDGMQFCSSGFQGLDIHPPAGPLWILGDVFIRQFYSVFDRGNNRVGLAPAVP
# assay.text: Inhibition of human recombinant cathepsin E
test.readout: IC50

**Query** Report IC50 for Cn1c(=O)oc2ccc(-c3ccc(C[C@@H](C#N)NC(=O)[C@@H]4CNCCCO4)cc3)cc21 tested on Cathepsin E (Homo sapiens).
**Result** > 20 µM
